molecular target: Human CD137 ECD (human); assay: SPR, vs parent H183/L072
Sequence (chain, as listed by the source limits assumed): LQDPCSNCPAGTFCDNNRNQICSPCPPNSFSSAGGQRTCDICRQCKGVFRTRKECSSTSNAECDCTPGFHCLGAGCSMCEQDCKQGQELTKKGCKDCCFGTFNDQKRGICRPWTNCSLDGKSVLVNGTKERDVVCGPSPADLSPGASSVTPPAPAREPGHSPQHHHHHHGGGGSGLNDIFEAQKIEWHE
measured-endpoint: fold change of affinity (fold)
Your answer is read as fold, so omit the unit and give the number.

[in] May I ask what fold change of affinity has been recorded for dBBDu183H H96N / dBBDu072L (antibody, name in Kabat numbering, V domains shown) VH: QVQLVESGGGLVQPGRSLRLSCAASGFTFSNAWMHWVRQAPGKGLEWVAQIKDKGNAYAAYYAPSVKGRFTISRDDSKNSIYLQMNSLKTEDTAVYYCHYVNYASASTVLPAFGVDAWGQGTTVTVSS VL: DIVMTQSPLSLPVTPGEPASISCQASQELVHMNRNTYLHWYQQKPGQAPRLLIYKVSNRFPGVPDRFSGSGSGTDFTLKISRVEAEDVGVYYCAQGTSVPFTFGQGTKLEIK ?
[out] 0

[in] May I ask what fold change of affinity has been recorded for dBBDu183H V95Y / dBBDu072L (antibody, name in Kabat numbering, V domains shown) VH: QVQLVESGGGLVQPGRSLRLSCAASGFTFSNAWMHWVRQAPGKGLEWVAQIKDKGNAYAAYYAPSVKGRFTISRDDSKNSIYLQMNSLKTEDTAVYYCHYYHYASASTVLPAFGVDAWGQGTTVTVSS VL: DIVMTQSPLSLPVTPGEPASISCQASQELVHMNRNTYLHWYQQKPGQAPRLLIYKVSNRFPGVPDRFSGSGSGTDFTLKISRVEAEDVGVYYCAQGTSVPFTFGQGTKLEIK ?
[out] 0
